- Test system: Klebsiella pneumoniae EK-6
- method_summary: In vitro antibacterial activity, Klebsiella pneumoniae EK-6 (Tables 2-6)
- Assay type: cell-based
- condition_context: Klebsiella pneumoniae, EK6
observed_property: MIC (µg/mL)

[[record]]
compound = "Nc1nc(/C(=N/O)C(=O)N[C@@H]2C(=O)N3C(C(=O)[O-])=C(/C=C\\c4cncnc4)CS[C@H]23)cs1.[Na+] [Example 16]"
observed_property = "MIC"
value_measured = 0.05

[[record]]
compound = "CO/N=C(\\C(=O)N[C@@H]1C(=O)N2C(C(=O)[O-])=C(/C=C\\c3c(Cl)ncnc3Cl)CS[C@H]12)c1csc(N)n1.[Na+] [Example 29 (Z)]"
observed_property = "MIC"
value_measured = 7.56

[[record]]
compound = "CO/N=C(\\C(=O)N[C@@H]1C(=O)N2C(C(=O)[O-])=C(/C=C/C3CCC(=O)O3)CS[C@H]12)c1csc(N)n1.[Na+] (stereo partly drawn) [Example 52]"
observed_property = "MIC"
value_measured = 0.025

[[record]]
compound = "CO/N=C(\\C(=O)N[C@@H]1C(=O)N2C(C(=O)[O-])=C(/C=C\\C3CCCO3)CS[C@H]12)c1csc(N)n1.[Na+] (stereo partly drawn) [Example 49]"
observed_property = "MIC"
value_measured = 0.4

[[record]]
compound = "CCNC(=O)OC/C=C\\C1=C(C(=O)[O-])N2C(=O)C(NC(=O)/C(=N\\O)c3csc(N)n3)[C@H]2SC1.[Na+] (stereo partly drawn) [Example 42]"
observed_property = "MIC"
value_measured = 0.05

[[record]]
compound = "Nc1nc(/C(=N/O)C(=O)NC2C(=O)N3C(C(=O)[O-])=C(/C=C\\COC(=O)NCCCl)CS[C@H]23)cs1.[Na+] (stereo partly drawn) [Example 44]"
observed_property = "MIC"
value_measured = 0.05

